protocol details: P. aeruginosa biofilm formation inhibitors, primary screen, strain PAO1, LB-PBS medium, absorbance 600 nm (AID 1176); also: test concentration not given here
condition info: P. aeruginosa PAO1 growth/biofilm, A600, 12 h; higher = more signal
The source made the active and inactive calls. No rule for the calls is given here.
The following compounds are listed with their measured z-score values.

compound	z-score
O=C1c2ccccc2[C@@]2(Cc3ccccc3N(CC(F)(F)F)C2=O)[C@H](c2ccc(CO)cc2)N1Cc1ccccc1	0.118 (inactive)
O=C(CS)NCCCCCCNC(=O)[C@H]1C[C@H]2C(=O)NCC(=O)N2[C@H]1c1cccc(OCCO)c1	0.339 (inactive)
CO[C@H]1O[C@H](CO)[C@@H](OC(=O)Nc2cccc(F)c2)[C@H](OC(=O)Nc2ccc3c(c2)OCO3)[C@@H]1OC(=O)Nc1ccc2c(c1)OCO2	0.661 (inactive)
O=C1C2C=CC(C(O)C3CCCCC3)N(Nc3ccccc3F)C2C(=O)N1c1ccccc1 (configuration not stated)	0.931 (inactive)
C=CCN1C(=O)[C@@]2(O[C@@H](CCO)[C@H]([Si](C)(C)c3ccc(OC)cc3)[C@H]2C)c2cc(N3CCCCC3=O)ccc21	0.568 (inactive)
C=CC[C@H](OC(=O)Nc1ccc(SC)cc1)c1ccc(O)c(F)c1	1.1 (inactive)
COC(=O)[C@@]1(Cc2ccc(OC)cc2)[C@H]2c3cc(C(=O)N(C)C)n(Cc4c(CO)[nH]cc(C)c4=O)c3C[C@H]2CN1C(=O)c1ccccc1	0.371 (inactive)

====

measurement target: Torsin-1A-interacting protein 2 (Homo sapiens) (UniProt Q8NFQ8)
Sequence (Q8NFQ8 whole entry, looked up): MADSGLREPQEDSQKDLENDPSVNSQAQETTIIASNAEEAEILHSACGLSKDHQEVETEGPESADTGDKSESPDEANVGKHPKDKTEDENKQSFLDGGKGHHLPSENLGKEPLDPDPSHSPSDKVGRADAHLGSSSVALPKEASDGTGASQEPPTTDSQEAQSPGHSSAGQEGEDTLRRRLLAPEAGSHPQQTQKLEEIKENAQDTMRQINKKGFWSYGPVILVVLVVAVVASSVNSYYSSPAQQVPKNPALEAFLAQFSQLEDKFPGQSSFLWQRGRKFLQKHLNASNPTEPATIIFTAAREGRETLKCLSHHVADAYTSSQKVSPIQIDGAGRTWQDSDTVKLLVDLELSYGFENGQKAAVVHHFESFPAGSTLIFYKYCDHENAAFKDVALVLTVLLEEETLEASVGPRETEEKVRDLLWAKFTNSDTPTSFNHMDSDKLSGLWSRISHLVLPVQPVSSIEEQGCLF
protocol details: LULL1 binders on small-molecule microarray, primary screen, cell lysate, human LULL1 lysate, 635/667 nm fluorescence (AID 1092);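 also: probe is lysate of COS7 cells overexpressing human LULL1; score merges per-feature 667 nm fluorescence with signal-to-noise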
condition info: hLULL1 lysate binding, 635 nm fluorescence, higher = more signal
Label rule, in plain words: composite z-score of 3 and up is Yes, under 3 is No.

molecule	discrete label
Cc1ccc(S(=O)(=O)N2[C@@H](c3ccccc3)C(C(=O)O)=C[C@H]2C(C)(C)C)cc1	No
O=C1O[C@H](c2ccccc2)[C@H](c2ccccc2)N2[C@H]1[C@@H](C(=O)N1CCCCCCC1)[C@]1(C(=O)Nc3ccc(C#CCCO)cc31)[C@H]2c1ccc(O)cc1	Yes
CC(C)c1ccc(NN2C(C(O)c3ccccc3)C=CC3C(=O)N(c4ccccc4)C(=O)C32)cc1 (configuration not stated)	No
C=CCN1C(=O)[C@]2(O[C@H](CCO)[C@@H]([Si](C)(C)c3ccc(OC)cc3)[C@@H]2C)c2cc(N3C(=O)c4ccccc4Oc4ccccc43)ccc21	No
CCCCC(=C=CC[C@@H](O)c1ccc(OCCO)cc1)CCO	No
COc1ccc(CCNC(=O)[C@@H]2c3ccccc3C(=O)N(Cc3cc(F)cc(C(F)(F)F)c3)[C@H]2c2ccc(CO)cc2)cc1	No
CN1C(=O)C2C(C1=O)C1C=C(CCCO)C2C(C2CC2)N1C (configuration not stated)	No
CCCN1C(=O)[C@@]2(c3ccc([N+](=O)[O-])cc3)CC(=O)N(C3CCCCC3)[C@@H]2c2ccc(CO)cc21	No
COc1ccc(C(=O)Nc2ccc(CN3C(=O)[C@@]4(O[C@@H](CC(=O)N(CCO)Cc5ccccc5)[C@H]([Si](C)(C)c5ccc(OC)cc5)[C@H]4C)c4ccccc43)cc2)cc1	No
CCCNC(=O)[C@@]1(Sc2ccc(C)cc2)CC(=O)N(Cc2cc(C(F)(F)F)cc(C(F)(F)F)c2)[C@@H]1c1ccc(CO)cc1	No
COC(=O)[C@@]1(Cc2ccccc2)[C@H]2c3cc(C(=O)N(C)C)n(Cc4ccc(Cl)c(C(F)(F)F)c4)c3C[C@H]2CN1C(=O)c1ccccc1	No
Cc1ccc(S[C@]2(C(=O)NC(C)C)CC(=O)N(Cc3ccccc3)[C@@H]2c2ccc(CO)cc2I)cc1	No
C[C@@]1([C@@H](NS(=O)(=O)c2cccc3cccnc23)c2ccc(-c3ccccc3)cc2)C[C@H]1C1CCCCC1	No
COCCOC(=O)N1C(=O)[C@@]2(c3cc(C#CCC(C(=O)OC)C(=O)OC)ccc31)[C@H](C(=O)N1CCc3cc(OC)c(OC)cc3C1)[C@H]1C(=O)O[C@H](c3ccccc3)[C@H](c3ccccc3)N1[C@@H]2c1ccccc1OCCO	No
C=CCOC(=O)[C@H]1[C@@H]2C(=O)O[C@@H](c3ccccc3)[C@@H](c3ccccc3)N2[C@@H](c2ccc(OCCOC(=O)[C@@H]3C[C@@H]4C(=O)N[C@@H](Cc5ccccc5)C(=O)N4[C@@H]3c3ccc(O)cc3)cc2)[C@]12C(=O)Nc1ccc(I)cc12	No
COCCOC(=O)N1C(=O)[C@@]2(c3ccccc31)[C@H](C(=O)Nc1nc3ccccc3s1)[C@H]1C(=O)O[C@H](c3ccccc3)[C@H](c3ccccc3)N1[C@@H]2c1ccccc1OCCO	No
COC(=O)[C@@]1(Cc2ccc(OC)cc2)[C@@H]2[C@@H](CC(=O)[C@H]2CC(=O)C(=O)N(C)C)CN1C(=O)c1ccccc1	Yes
COc1cccc(C)c1NC(=O)O[C@H]1[C@H](OC(=O)Nc2ccccc2)[C@@H](OC(=O)Nc2ccccc2)[C@@H](OC)O[C@@H]1CO	Yes
C=C[C@@H](CO)NS(=O)(=O)c1ccc(Br)cc1	No
[N-]=[N+]=Nc1ccccc1C[C@]1(C(N)=O)COC(c2ccc(OCCCO)cc2)=N1	No
COc1ccc([Si](C)(C)[C@H]2[C@H](CC(=O)N(CCO)Cc3ccccc3)O[C@@]3(C(=O)N(Cc4cccc(N5CCCCC5=O)c4)c4ccccc43)[C@@H]2C)cc1	No
C=C(COC)/C(=C/C[C@@H](OC(C)=O)c1cccc(OCCO)c1)c1cnc2ccccc2c1	No
COC(=O)C1=CC(CCCO)=CC(c2ccc(CN3CCCC3)cc2)N(C)C=C1C(=O)OC (configuration not stated)	Yes
CO[C@H]1O[C@H](CO)[C@@H](OC(=O)Nc2cccc(F)c2)[C@H](OC(=O)Nc2ccc3c(c2)OCO3)[C@@H]1OC(=O)Nc1ccc2c(c1)OCO2	Yes
COc1ccc(CCNC(=O)[C@@]2(C)c3ccccc3C(=O)N(Cc3ccc(OC(F)(F)F)cc3)[C@H]2c2ccc(CO)cc2)cc1	No

====

protocol details: basal MM1S mitochondrial membrane potential changes, profiling panel, cell-based, JC-1 fluorescence, 24 h, 100 nL compound (AID 1170); also: test concentration not given here
condition info: higher = more signal
// reported z-score per item

molecule	z-score
COc1ccc(C(O)C2C=CC3C(=O)N(c4ccccc4)C(=O)C3N2Nc2ccccc2F)c2ccccc12 (configuration not stated)	-0.754
CC(C)c1ccc(NN2C(C(O)C(C)c3ccccc3)C=CC3C(=O)N(c4ccccc4)C(=O)C32)cc1 (configuration not stated)	-0.102
CC[C@@H](O[Si](C#C[Si](C(C)C)(C(C)C)C(C)C)(C(C)C)C(C)C)c1cn([C@H](CO)Cc2ccccc2)nn1	-0.757
COCCCNC(=O)[C@]1(Cc2ccccc2CN=[N+]=[N-])N=C(c2ccc(OCCCO)cc2)O[C@@H]1c1ccccc1N=[N+]=[N-]	-2.77
CO[C@H]1O[C@H](CO)[C@@H](OC(=O)Nc2cccc(F)c2)[C@H](OC(=O)c2cc3ccccc3[nH]2)[C@H]1OC(=O)c1cc2ccccc2[nH]1	-0.415
COC(=O)[C@@]1(Cc2ccc(F)cc2)[C@H]2c3cc(C(=O)N(C)C)n(Cc4ccsc4Br)c3C[C@H]2CN1C(=O)c1ccccc1	-1.17
COCCCNC(=O)[C@]1(Cc2ccccc2N=[N+]=[N-])N=C(c2ccc(OCCCO)cc2)O[C@@H]1c1ccccc1	-0.774

====

measurement target: Fibroblast growth factor 2 (Homo sapiens) (UniProt P09038)
Sequence (P09038 whole entry, looked up): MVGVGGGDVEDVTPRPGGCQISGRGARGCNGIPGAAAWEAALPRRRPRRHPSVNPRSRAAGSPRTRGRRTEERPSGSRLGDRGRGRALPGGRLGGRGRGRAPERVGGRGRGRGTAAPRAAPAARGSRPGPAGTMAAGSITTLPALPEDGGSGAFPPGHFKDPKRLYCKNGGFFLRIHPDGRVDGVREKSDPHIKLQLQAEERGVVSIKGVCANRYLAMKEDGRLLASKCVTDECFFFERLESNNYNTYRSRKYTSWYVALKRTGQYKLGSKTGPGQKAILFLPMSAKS
protocol details: FGF2 binders on small-molecule microarrays, primary screen, biochemical, small-molecule microarray, 635/667 nm fluorescence (AID 1133)
condition info: small-molecule microarray binding, FGF2, fluorescence 635/667; higher = more signal
Reported composite z-score is given for each of the following compounds.
recorded endpoint: composite z-score

compound	recorded endpoint	numeric value
CC(C)c1ccc(NN2C(C(O)C3=C[C@H]4C[C@@H](C3)C4(C)C)C=CC3C(=O)N(c4ccccc4)C(=O)C32)cc1 (stereo partly specified)	composite z-score	0.248
COCCOC(=O)N1C(=O)[C@@]2(c3cc(C#CCNC(N)=O)ccc31)[C@H](C(=O)N1CCN(c3ncccn3)CC1)[C@H]1C(=O)O[C@H](c3ccccc3)[C@H](c3ccccc3)N1[C@@H]2c1ccc(O)cc1	composite z-score	-0.623
O=C1NC(=O)C2C1C=CC(C(O)C(O)CO)N2Nc1ccccn1 (stereo unspecified)	composite z-score	-0.0885
CCCCC(=C=CC[C@@H](O)c1ccccc1OCCO)C[C@@H](O)c1ccccn1	composite z-score	0.356
[N-]=[N+]=NCc1ccccc1[C@H]1OC(c2ccc(OCCCO)cc2)=N[C@@]1(Cc1ccccc1N=[N+]=[N-])C(=O)O	composite z-score	0.134
CCCCC(=C=CC[C@H](O)c1cccc(OCCO)c1)C[C@H](O)c1cc(Cl)cc(Cl)c1O	composite z-score	0.272
CN1C(=O)C2C(C1=O)C1C=C(CCCO)C2C(C2CC2)N1C (stereo unspecified)	composite z-score	0.628
O=C1NC(=O)C2C1C=CC(C(O)c1ccc(F)cc1)N2Nc1ccc(Cl)cc1Cl (stereo unspecified)	composite z-score	-0.459
C=CCNC(=O)[C@H]1[C@@H]2C(=O)O[C@@H](c3ccccc3)[C@@H](c3ccccc3)N2[C@@H](c2ccc(OCCO)cc2)[C@]12C(=O)Nc1ccc(C#Cc3ccc(OC)cc3)cc12	composite z-score	0.977
O=C(NCCN1CCOCC1)[C@@H]1c2ccccc2C(=O)N(CC23CC4CC(CC(C4)C2)C3)[C@H]1c1ccc(CO)cc1	composite z-score	0.424
CCCCC=C[C@@H](NC(=O)C(C)(C)C)c1ccccc1	composite z-score	-0.0812
Cc1ccc(S[C@]2(C(=O)NCc3ccccc3)CC(=O)N(Cc3ccccc3Cl)[C@@H]2c2ccc(CO)cc2)cc1	composite z-score	-0.756
C=C(CCCC)/C(=C/C[C@@H](OC(C)=O)c1ccc(OCCO)cc1)c1cc(C(=O)OC)ccc1OC	composite z-score	-0.0009
COc1cccc(C)c1NC(=O)O[C@H]1[C@H](OC(=O)Nc2ccccc2)[C@@H](OC(=O)Nc2ccccc2)[C@@H](OC)O[C@@H]1CO	composite z-score	0.432
COC(=O)[C@@]1(Cc2ccc(F)cc2)[C@@H]2C(=CC(=O)[C@H]2CC(=O)C(=O)N2CCCC2)CN1C(=O)c1ccccc1	composite z-score	0.674
C=C(COC)/C(=C/C[C@@H](OC(=O)c1ccncc1)c1ccccc1OCCO)c1cnc2ccccc2c1	composite z-score	1.6

Where do these numbers come from? They come from PubChem BioAssay.
